Molecular target: TPC1 (Strongylocentrotus purpuratus, UniProt D1J6X7)
Sequence (D1J6X7 1-881): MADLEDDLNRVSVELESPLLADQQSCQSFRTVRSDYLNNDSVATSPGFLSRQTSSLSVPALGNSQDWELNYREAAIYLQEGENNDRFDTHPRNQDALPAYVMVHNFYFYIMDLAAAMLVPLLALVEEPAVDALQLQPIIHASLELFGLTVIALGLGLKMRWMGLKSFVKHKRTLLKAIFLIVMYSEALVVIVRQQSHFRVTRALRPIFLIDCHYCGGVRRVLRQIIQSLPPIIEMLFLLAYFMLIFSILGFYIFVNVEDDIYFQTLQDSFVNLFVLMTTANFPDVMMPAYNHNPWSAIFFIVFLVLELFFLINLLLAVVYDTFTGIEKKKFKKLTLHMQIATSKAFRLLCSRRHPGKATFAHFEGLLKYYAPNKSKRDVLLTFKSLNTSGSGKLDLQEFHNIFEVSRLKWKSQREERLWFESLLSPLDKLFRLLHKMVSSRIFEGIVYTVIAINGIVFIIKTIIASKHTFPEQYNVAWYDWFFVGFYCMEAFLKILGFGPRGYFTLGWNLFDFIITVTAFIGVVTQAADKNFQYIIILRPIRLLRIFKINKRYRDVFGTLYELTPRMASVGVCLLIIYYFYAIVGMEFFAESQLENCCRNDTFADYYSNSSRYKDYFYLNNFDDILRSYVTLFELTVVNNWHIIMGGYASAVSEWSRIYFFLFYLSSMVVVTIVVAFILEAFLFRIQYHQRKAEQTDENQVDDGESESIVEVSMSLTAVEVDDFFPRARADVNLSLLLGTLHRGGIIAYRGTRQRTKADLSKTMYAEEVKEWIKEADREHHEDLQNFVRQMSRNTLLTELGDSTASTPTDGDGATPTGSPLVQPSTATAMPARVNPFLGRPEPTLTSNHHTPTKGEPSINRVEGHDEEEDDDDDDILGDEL
Test: inhibition of NAADP-evoked Ca2+ signals
readoutLabel: pIC50
Formally, pIC50 is defined as -log10 of the concentration c, with c in mol/L.

Lookup: I am curious: what pIC50 value has been reported for COC(=O)C1=C(C)NC(C)=C(C(=O)OC)C1c1ccccc1[N+](=O)[O-] ?
Found: 5.40
